Assay: Half life in human liver microsomes at 0.5 uM in presence of NADPH
Format: ADME
Readings of half-life at 0.5 µM for the listed compounds
measurement.name: half-life at 0.5 µM (min)

INSERT INTO assay_data (compound, measurement_name, value) VALUES
  ('CSc1nc2ccccn2c(=N)c1S(=O)(=O)c1ccc(C(C)(C)C)cc1', 'half-life at 0.5 µM', 3.9),
  ('CSc1nc2c3ccccc3ccn2c(=N)c1S(=O)(=O)c1ccccc1', 'half-life at 0.5 µM', 7.9),
  ('CSc1nc2ccccn2c(=N)c1S(=O)(=O)c1cc(C)c(Cl)cc1C', 'half-life at 0.5 µM', 4.1),
  ('COc1ccc2[nH]c([S+]([O-])Cc3ncc(C)c(OC)c3C)nc2c1 (stereo not given)', 'half-life at 0.5 µM', 26),
  ('CNc1nc2ccccn2c(=N)c1S(=O)(=O)c1ccccc1', 'half-life at 0.5 µM', 7.2),
  ('C/N=c1/c(S(=O)(=O)c2ccccc2)c(SC)nc2ccccn12', 'half-life at 0.5 µM', 2.8),
  ('CSc1nc2ccccn2c(=N)c1S(=O)(=O)c1ccc(Cl)c(Cl)c1', 'half-life at 0.5 µM', 3.1),
  ('CSc1nc2c(Cc3ccccc3)cccn2c(=N)c1S(=O)(=O)c1ccccc1', 'half-life at 0.5 µM', 5.5),
  ('CSc1nc2ccccn2/c(=N\C(C)=O)c1S(=O)(=O)c1ccccc1', 'half-life at 0.5 µM', 43),
  ('CSc1nc2ccccn2c(=O)c1S(=O)(=O)c1ccccc1', 'half-life at 0.5 µM', 40),
  ('CSc1nc2ccccn2c(=N)c1S(=O)(=O)c1ccccc1', 'half-life at 0.5 µM', 5.2),
  ('CSc1nc2ccc(Br)cn2c(=N)c1S(=O)(=O)c1ccccc1', 'half-life at 0.5 µM', 7.5),
  ('CSc1nc2ccccn2c(=N)c1S(=O)(=O)c1ccc(F)cc1', 'half-life at 0.5 µM', 3.1),
  ('CSc1nc2ccccn2c(=N)c1S(=O)(=O)c1ccc(OC(F)(F)F)cc1', 'half-life at 0.5 µM', 2.8),
  ('COc1nc2ccccn2c(=N)c1S(=O)(=O)c1ccccc1', 'half-life at 0.5 µM', 13.7);

---

Tested on: Brain
Assay: Drug uptake in rat brain at 10 mg/kg, ip
Format: ADME, organism-based
Set-up: dose 10 mg/kg, route intraperitoneal
Conditions: in vivo, read-out: Drug uptake
measurement.name: concentration

INSERT INTO assay_data (compound_structure_string, measurement_name, value) VALUES
  ('CSc1nc2ccccn2c(=N)c1S(=O)(=O)c1ccccc1', 'concentration', '1900 nM');

---

Biological target: 5-hydroxytryptamine receptor 6 (Homo sapiens, UniProt P50406)
Sequence (P50406 whole entry): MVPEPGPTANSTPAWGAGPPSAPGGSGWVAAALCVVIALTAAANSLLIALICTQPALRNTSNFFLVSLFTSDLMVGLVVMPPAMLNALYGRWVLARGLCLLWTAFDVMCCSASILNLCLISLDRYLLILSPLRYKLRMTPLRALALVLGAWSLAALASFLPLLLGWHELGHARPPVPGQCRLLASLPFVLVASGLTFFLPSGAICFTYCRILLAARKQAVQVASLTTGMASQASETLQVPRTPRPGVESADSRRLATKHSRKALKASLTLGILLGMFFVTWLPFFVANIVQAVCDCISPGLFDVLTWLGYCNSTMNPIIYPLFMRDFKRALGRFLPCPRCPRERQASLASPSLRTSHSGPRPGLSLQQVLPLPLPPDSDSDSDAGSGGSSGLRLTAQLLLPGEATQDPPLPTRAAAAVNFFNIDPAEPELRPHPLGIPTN
Assay: Displacement of [3H]LSD from human cloned 5-HT6 receptor expressed in HeLa cells
Assay type: cell-based
pIC50: −log10 of the molar value.
Listing: pIC50 of selected compounds
measurement.name: pIC50

INSERT INTO results (compound_structure_string, value) VALUES
  ('CSc1nc2cc(C)ccn2c(=N)c1S(=O)(=O)c1ccccc1', 7.39),
  ('CSc1nc2ccccn2/c(=N\C(C)=O)c1S(=O)(=O)c1ccccc1', 7.08),
  ('CSc1nc2c(C)cc(Br)cn2c(=N)c1S(=O)(=O)c1ccccc1', 7.92),
  ('CSc1nc2ccc(C)cn2c(=N)c1S(=O)(=O)c1ccccc1', 8.89),
  ('COC(=O)c1ccc2nc(SC)c(S(=O)(=O)c3ccccc3)c(=N)n2c1', 6.33),
  ('CCNc1nc2ccccn2c(=N)c1S(=O)(=O)c1ccccc1', 8.70),
  ('CSc1nc2ccc(Br)cn2c(=N)c1S(=O)(=O)c1ccccc1', 7.25),
  ('CCc1ccn2c(=N)c(S(=O)(=O)c3ccccc3)c(SC)nc2c1', 7.10),
  ('N=c1c(S(=O)(=O)c2ccccc2)c(NCCO)nc2ccccn12', 7.38),
  ('CSc1nc2ccccn2c(=N)c1S(=O)(=O)c1ccccc1Cl', 7.96),
  ('CSc1nc2c3ccccc3ccn2c(=N)c1S(=O)(=O)c1ccccc1', 7.26);
